Species on record: Bos taurus
test: Selectivity index, ratio of IC50 for bovine brain mitochondria MAO-B to IC50 for bovine brain mitochondria MAO-A
measure_name: Selectivity Index

### Prompt Give Selectivity Index for CCOC(=O)C(C(=O)NCCc1ccccc1)[n+]1ccc2ccccc2c1 (stereo not given)
### Response 12400

### Prompt Supply reported Selectivity Index belonging to this compound: `N/N=C/c1ccc(Cl)cc1`
### Response 1.89e+06

### Prompt Could you please provide reported Selectivity Index for CCOC(=O)C(C(=O)N/N=C/c1ccc([N+](=O)[O-])cc1)[n+]1ccc2ccccc2c1 (stereo not given) ? Thanks!
### Response 1.94e+06

### Prompt Retrieve Selectivity Index measured for CCOC(=O)C(C(=O)N/N=C/c1ccc(Cl)cc1)[n+]1ccc2ccccc2c1 (stereo not given) and print it.
### Response 5400

### Prompt Identify measured Selectivity Index corresponding to `N/N=C/c1ccc([N+](=O)[O-])cc1`
### Response 9500

====

test: Stability of the compound in 20% rabbit brain homogenate assessed as half life by reverse-phase HPLC analysis
Format: ADME, tissue-based, Oryctolagus cuniculus
measure_name: half-life (min)
Your answer is read as min, so omit the unit and give the number.

### Prompt Provide only the value of recorded half-life for CCOC(=O)C(C(=O)NCCc1ccccc1)N1C=Cc2ccccc2C1 (stereo unspecified)
### Response 181

====

test: Chemical stability of the compound in 10% methanolic silver nitrate assessed as half life by reverse-phase HPLC analysis
Format: physicochemical
measure_name: half-life (min)
// note: answer is a bare numeric in min

### Prompt Find the measured half-life of CCOC(=O)C(C(=O)NCCc1ccccc1)N1C=Cc2ccccc2C1 (stereo unspecified) and report it.
### Response 31.9

====

test: Shelf-life stability of the compound in phosphate buffer at pH 5.8 assessed as half life by reverse-phase HPLC analysis
Type: physicochemical
measure_name: half-life (min)
Enter your answer as a number in min; do not include the unit.

### Prompt Specify reported half-life for the molecule shown: CCOC(=O)C(C(=O)NCCc1ccccc1)N1C=Cc2ccccc2C1 (stereo unspecified)
### Response 1240

====

test: Chemical stability of the compound in 30% aqueous hydrogen peroxide assessed as half life by reverse-phase HPLC analysis
Type: physicochemical
measure_name: half-life

### Prompt Answer with the recorded half-life of CCOC(=O)C(C(=O)NCCc1ccccc1)N1C=Cc2ccccc2C1 (stereo unspecified) only.
### Response 38.2 min

====

assay_system: Amine oxidase [flavin-containing] B (Bos taurus)
Sequence (P56560 whole entry): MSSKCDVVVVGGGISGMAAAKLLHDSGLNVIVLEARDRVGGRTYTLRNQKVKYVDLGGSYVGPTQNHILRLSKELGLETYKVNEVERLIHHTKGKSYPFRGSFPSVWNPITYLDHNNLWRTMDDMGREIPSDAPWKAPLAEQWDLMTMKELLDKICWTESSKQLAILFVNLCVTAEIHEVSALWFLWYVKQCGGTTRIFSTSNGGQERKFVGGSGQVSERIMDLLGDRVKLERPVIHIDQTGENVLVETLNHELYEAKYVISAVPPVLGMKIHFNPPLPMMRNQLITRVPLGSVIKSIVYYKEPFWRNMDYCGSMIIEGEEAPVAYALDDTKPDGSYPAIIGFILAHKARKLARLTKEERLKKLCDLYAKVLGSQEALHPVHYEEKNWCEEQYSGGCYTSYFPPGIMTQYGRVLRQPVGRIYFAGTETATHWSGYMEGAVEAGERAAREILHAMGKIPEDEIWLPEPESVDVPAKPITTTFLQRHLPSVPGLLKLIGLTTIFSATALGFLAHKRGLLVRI
measure_name: pIC50
pIC50 field: float, defined as -log10 of concentration (mol/L).

### Prompt Query pIC50 for `N/N=C/c1ccc(Cl)cc1`
### Response 2.13

### Prompt State its pIC50: CCOC(=O)C(C(=O)N/N=C/c1ccc(Cl)cc1)[n+]1ccc2ccccc2c1 (centres undefined)
### Response 3.44

### Prompt Using known records, supply pIC50 for CCOC(=O)C(C(=O)NCCc1ccccc1)[n+]1ccc2ccccc2c1 (centres undefined)
### Response 4.11

### Prompt Respond only with pIC50 recorded for `N/N=C/c1ccc([N+](=O)[O-])cc1`
### Response 3.42

====

test: Stability of the compound in 80% mouse plasma assessed as half life by reverse-phase HPLC analysis
Type: ADME, cell-free
measure_name: half-life (h)
Give the number; h is assumed, so skip it.

### Prompt Name the recorded half-life of the item CCOC(=O)C(C(=O)NCCc1ccccc1)N1C=Cc2ccccc2C1 (stereo unspecified) in your answer.
### Response 1.7
